pKi values for the compounds below.
# measured-target: HCV NS3/NS4a serine protease (Hepatitis C virus genotype 1b)
# Construct: amino terminus of the NS3 protease domain (amino acids 3-181) with a tetrapeptide linker; made in house; host or cells: E. coli
# Sequence (P26663 1013-1207, looked up, natural form): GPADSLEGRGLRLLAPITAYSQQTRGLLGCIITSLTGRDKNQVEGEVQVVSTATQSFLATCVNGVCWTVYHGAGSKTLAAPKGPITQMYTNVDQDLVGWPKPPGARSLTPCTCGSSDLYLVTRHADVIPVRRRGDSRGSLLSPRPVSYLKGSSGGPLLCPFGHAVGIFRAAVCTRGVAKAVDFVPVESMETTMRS
# assay-notes: Spectrophotometric assay for HCV protease inhibitory activity (chromogenic ester substrates)
# Type: biochemical, hepatitis C virus (strain 1b)
# condition-context: Ki Rating, Table 2; single chain NS4A21-32-GSGS-NS3 3-181 protease, 30° C., pH 6.5
pKi: −log10 of the molar value. *1 amine or outer side, *2 acyl side, *3 side chain or, on linkers, in order; H or OH if unused. Where a SMILES comes first, the peptide text is derived from it. [ ]: non-standard residue; d: D form. The star is where a group is joined. Pro(3R,4S-CMe2) = CC1(C)[C@@H]2[C@@H](C(=O)O)NC[C@@H]21; Abu(4,4-F2) = N[C@@H](CC(F)F)C(=O)O; Phg = N[C@H](C(=O)O)c1ccccc1; Tle = CC(C)(C)[C@H](N)C(=O)O; CO = O=C([*:1])[*:2]; X2 = CC1(N*)CCCCC1

# example entries with known answers
{"compound": "COC(=O)c1ccc(CCNC(=O)[C@H](CC(F)F)NC(=O)[C@@H]2[C@@H]3[C@H](CN2C(=O)[C@@H](NC(=O)OC(C)(C)C)C(C)(C)C)C3(C)C)cc1 [Example 148]", "pKi": "< 6.30"}
{"compound": "CN(C)C(=O)[C@@H](NC(=O)CNC(=O)[C@H](CC(F)F)NC(=O)[C@@H]1[C@@H]2[C@H](CN1C(=O)[C@@H](NC(=O)NC1(C)CCCCC1)C(C)(C)C)C2(C)C)c1ccccc1 [Example 172] ({X2-CO}-[Tle][Pro(3R,4S-CMe2)][Abu(4,4-F2)]G[Phg]-NMe2)", "pKi": "< 6.30"}
{"compound": "COC[C@@H](NC(=O)N[C@H](C(=O)N1C[C@H]2[C@@H]([C@H]1C(=O)N[C@@H](CC(F)F)C(=O)NCCc1ccc(C(=O)OC)cc1)C2(C)C)C(C)(C)C)C(C)(C)C [Example 142]", "pKi": "6.30 to 7.00"}
{"compound": "COC(=O)c1ccc(CCNC(=O)[C@H](CC(F)F)NC(=O)[C@@H]2[C@@H]3[C@H](CN2C(=O)[C@@H](NC(=O)N[C@H](C(=O)OC(C)(C)C)C(C)C)C(C)(C)C)C3(C)C)cc1 [Example 133]", "pKi": "6.30 to 7.00"}
{"compound": "CC(C)(C)[C@H](NC(=O)NC1(CS(C)(=O)=O)CCCCC1)C(=O)N1C[C@H]2[C@@H](C1C(=O)NC(CC(F)F)C(=O)NCCc1ccc(C(N)=O)cc1)C2(C)C (stereo partly shown) [Example 135]", "pKi": "6.30 to 7.00"}

Data request: Request the reported pKi associated with CC(C)[C@H](NC(=O)N[C@H](C(=O)N1C[C@H]2[C@@H]([C@H]1C(=O)N[C@@H](CC(F)F)C(=O)O)C2(C)C)C(C)(C)C)C(=O)OC(C)(C)C [Example 153]
Data returned: < 6.30

Data request: Param item: CC(C)[C@H](NC(=O)N[C@H](C(=O)N1C[C@H]2[C@@H]([C@H]1C(=O)N[C@@H](CC(F)F)C(N)=O)C2(C)C)C(C)(C)C)C(=O)OC(C)(C)C [Example 164]
Data returned: < 6.30

Data request: Param item: COC(=O)c1ccc(CCNC(=O)C(CC(F)F)NC(=O)[C@@H]2[C@@H]3[C@H](CN2C(=O)[C@@H](NC(=O)N[C@H](C(=O)OC(C)(C)C)C(C)C)C(C)(C)C)C3(C)C)cc1 (stereo partly shown) [Example 149]
Data returned: < 6.30

Data request: Param item: CC(C)[C@H](NC(=O)N[C@H](C(=O)N1C[C@H]2[C@@H]([C@H]1C(=O)N[C@@H](CC(F)F)C(N)=O)C2(C)C)C(C)(C)C)C(=O)O [Example 157]
Data returned: < 6.30

Data request: Param item: COC(=O)c1ccc(CCNC(=O)[C@H](CC(F)F)NC(=O)[C@@H]2[C@@H]3[C@H](CN2C(=O)[C@@H](NC(=O)N[C@H](C(=O)OCC2CC2)C(C)(C)C)C(C)(C)C)C3(C)C)cc1 [Example 143]
Data returned: 6.30 to 7.00
